- protocol-details: Cytotoxicity against human TZM-bl cells after 72 hrs by MTT assay
- Format: cell-based
- conditions-used: TZM-bl cells
Strictly below 60 µM in CC50 at 72 h: Fulfilled. Otherwise: Not fulfilled.

{"molecule": "Cc1cc2c(c(O)c1-c1c(C)cc3c(c1O)/C(=C/NCC(=O)NCC(=O)NCC(=O)[O-])C(=O)C(O)=C3C(C)C)/C(=C/NCC(=O)NCC(=O)NCC(=O)[O-])C(=O)C(O)=C2C(C)C.[Na+].[Na+] (stereo in doubt; (+)-6b)", "class": "Not fulfilled"}
{"molecule": "Cc1cc2c(c(O)c1-c1c(C)cc3c(c1O)/C(=C/NC(C)C(=O)NC(Cc1ccccc1)C(=O)[O-])C(=O)C(O)=C3C(C)C)/C(=C/NC(C)C(=O)NC(Cc1ccccc1)C(=O)[O-])C(=O)C(O)=C2C(C)C.[Na+].[Na+] (stereo in doubt; (+)-5b)", "class": "Fulfilled"}
{"molecule": "Cc1cc2c(c(O)c1-c1c(C)cc3c(c1O)/C(=C/N[C@@H](Cc1c[nH]c4ccccc14)C(=O)[O-])C(=O)C(O)=C3C(C)C)/C(=C/N[C@@H](Cc1c[nH]c3ccccc13)C(=O)[O-])C(=O)C(O)=C2C(C)C.[Na+].[Na+] (stereo in doubt; (+)-12b)", "class": "Fulfilled"}
{"molecule": "Cc1cc2c(c(O)c1-c1c(C)cc3c(c1O)/C(=C/N[C@@H](C)C(=O)[O-])C(=O)C(O)=C3C(C)C)/C(=C/N[C@@H](C)C(=O)[O-])C(=O)C(O)=C2C(C)C.[Na+].[Na+] (stereo in doubt; (+)-8b)", "class": "Not fulfilled"}
{"molecule": "Cc1cc2c(c(O)c1-c1c(C)cc3c(c1O)/C(=C/NC(CC(=O)[O-])C(=O)NC(C)C(=O)[O-])C(=O)C(O)=C3C(C)C)/C(=C/NC(CC(=O)[O-])C(=O)NC(C)C(=O)[O-])C(=O)C(O)=C2C(C)C.[Na+].[Na+].[Na+].[Na+] (stereo in doubt; (+)-4b)", "class": "Fulfilled"}
{"molecule": "Cc1cc2c(c(O)c1-c1c(C)cc3c(c1O)/C(=C/N[C@@H]1[C@@H](O)[C@H](O)[C@@H](CO)O[C@H]1O)C(=O)C(O)=C3C(C)C)/C(=C/N[C@@H]1[C@@H](O)[C@H](O)[C@@H](CO)O[C@H]1O)C(=O)C(O)=C2C(C)C (stereo in doubt; (+)-1b)", "class": "Fulfilled"}
{"molecule": "CC[C@H](C)[C@H](N/C=C1\\C(=O)C(O)=C(C(C)C)c2cc(C)c(-c3c(C)cc4c(c3O)/C(=C/N[C@H](C(=O)[O-])[C@@H](C)CC)C(=O)C(O)=C4C(C)C)c(O)c21)C(=O)[O-].[Na+].[Na+] (stereo in doubt; (+)-11b)", "class": "Not fulfilled"}
{"molecule": "Cc1cc2c(c(O)c1-c1c(C)cc3c(c1O)/C(=C/NC(C)S(=O)(=O)[O-])C(=O)C(O)=C3C(C)C)/C(=C/NC(C)S(=O)(=O)[O-])C(=O)C(O)=C2C(C)C.[Na+].[Na+] (single isomer, unassigned; (+))", "class": "Fulfilled"}
{"molecule": "Cc1cc2c(c(O)c1-c1c(C)cc3c(c1O)/C(=C/N[C@@H](Cc1ccccc1)C(=O)[O-])C(=O)C(O)=C3C(C)C)/C(=C/N[C@@H](Cc1ccccc1)C(=O)[O-])C(=O)C(O)=C2C(C)C.[Na+].[Na+] (stereo in doubt; (+)-13b)", "class": "Fulfilled"}
{"molecule": "Cc1cc2c(c(O)c1-c1c(C)cc3c(c1O)/C(=C/N[C@H](C(=O)[O-])C(C)C)C(=O)C(O)=C3C(C)C)/C(=C/N[C@H](C(=O)[O-])C(C)C)C(=O)C(O)=C2C(C)C.[Na+].[Na+] (stereo in doubt; (+)-9b)", "class": "Not fulfilled"}
